# Tested on: Pseudomonas aeruginosa
# Experiment: Antibacterial activity against penicillin-susceptible Pseudomonas aeruginosa ATCC 27853
# Type: functional
Kindly state MIC for each of the entries shown.
One number for each entry, in µg/mL.

COc1c(C(=O)/C=C/c2ccc(OCCCNCCN(C)C)cc2)ccc2c1C=CC(C)(CCC=C(C)C)O2 (centres undefined)	128
CC(=O)c1ccc2c(c1OCCCN(C)CCCN(C)C)C=CC(C)(CCC=C(C)C)O2 (centres undefined)	32

Please go through the list and note MIC for each molecule.
1. CC(=O)c1ccc2c(c1OCC(=O)NCCN(C)C)C=CC(C)(CCC=C(C)C)O2 (centres undefined)
2. CC(=O)c1ccc2c(c1OCCCN(C)C)C=CC(C)(CCC=C(C)C)O2 (centres undefined)
3. CC(=O)c1ccc2c(c1OCCCNCCCN1CCN(C)CC1)C=CC(C)(CCC=C(C)C)O2 (centres undefined)
4. CC(=O)c1c(OCCCNCCCN2CCCC2)c2c(c3c1OC(C)(CCC=C(C)C)C=C3)OC(C)(CCC=C(C)C)C=C2 (centres undefined)
5. CCN(CC)CCCNCCCOc1ccc(/C=C/C(=O)c2ccc3c(c2OC)C=CC(C)(CCC=C(C)C)O3)cc1 (centres undefined)

Response:
128
64
32
128
64

Please go through the list and note MIC for each molecule.
1. CC(=O)c1ccc2c(c1OCCCN(CCCN(C)C)CCCN(C)C)C=CC(C)(CCC=C(C)C)O2 (centres undefined)
2. COc1c(C(=O)/C=C/c2ccc(OCCCN)cc2)ccc2c1C=CC(C)(CCC=C(C)C)O2 (centres undefined)

Response:
[64, 16]

Please go through the list and note MIC for each molecule.
1. CNCCCOc1c(C(C)=O)ccc2c1C=CC(C)(CCC=C(C)C)O2 (centres undefined)
2. CCCCN(CCCC)CCCNCCCOc1c2c(c3c(c1C(C)=O)OC(C)(CCC=C(C)C)C=C3)OC(C)(CCC=C(C)C)C=C2 (centres undefined)
3. CC(=O)c1c(OCCCN(CCCN(C)C)CCCN(C)C)c2c(c3c1OC(C)(CCC=C(C)C)C=C3)OC(C)(CCC=C(C)C)C=C2 (centres undefined)

Response:
1. 64
2. 128
3. 128

For reference, reported MIC for CCCCN(CCCC)CCCNCCCOc1ccc(/C=C/C(=O)c2ccc3c(c2OC)C=CC(C)(CCC=C(C)C)O3)cc1 (centres undefined) stands at 128

====

# Experiment: Hemolytic activity in sheep RBC
# Assay type: toxicity, cell-based, Ovis aries, Erythrocyte
# Test conditions: sheep red blood cells (erythrocytes)
Endpoint: log10 of HC50 (log10 of the value in µg/mL)
# log10 transformed; quantity=HC50; unit=µg/mL

Study these solved cases before continuing.
CCCCN(CCCC)CCCNCCCOc1c(C(C)=O)ccc2c1C=CC(C)(CCC=C(C)C)O2 (stereo not drawn)	2.12
CC(=O)c1ccc2c(c1OCCCN1CCOCC1)C=CC(C)(CCC=C(C)C)O2 (stereo not drawn)	2.75
CC(=O)c1ccc2c(c1OCCCN(C)C)C=CC(C)(CCC=C(C)C)O2 (stereo not drawn)	2.29
CC(=O)c1c(OCCCNCCCN2CCCC2)c2c(c3c1OC(C)(CCC=C(C)C)C=C3)OC(C)(CCC=C(C)C)C=C2 (stereo not drawn)	1.29
CCCCN(CCCC)CCCNCCCOc1c2c(c3c(c1C(C)=O)OC(C)(CCC=C(C)C)C=C3)OC(C)(CCC=C(C)C)C=C2 (stereo not drawn)	1.56
CC(=O)c1ccc2c(c1OCCCNCCCN1CCN(C)CC1)C=CC(C)(CCC=C(C)C)O2 (stereo not drawn)	2.23
COc1c(C(=O)/C=C/c2ccc(OCCCN(C)CCCN(C)C)cc2)ccc2c1C=CC(C)(CCC=C(C)C)O2 (stereo not drawn)	2.08
CC(=O)c1c(OCCCN(CCCN(C)C)CCCN(C)C)c2c(c3c1OC(C)(CCC=C(C)C)C=C3)OC(C)(CCC=C(C)C)C=C2 (stereo not drawn)	1.48
COc1c(C(=O)/C=C/c2ccc(OCCCN)cc2)ccc2c1C=CC(C)(CCC=C(C)C)O2 (stereo not drawn)	2.05
CNCCCOc1ccc(/C=C/C(=O)c2ccc3c(c2OC)C=CC(C)(CCC=C(C)C)O3)cc1 (stereo not drawn)	1.96

Please go through the list and note log10 of HC50 for each compound.
1. CC(=O)c1c(OCCCN2CCSCC2)c2c(c3c1OC(C)(CCC=C(C)C)C=C3)OC(C)(CCC=C(C)C)C=C2 (stereo not drawn)
2. CC(=O)c1c(OCCCN(C)C)c2c(c3c1OC(C)(CCC=C(C)C)C=C3)OC(C)(CCC=C(C)C)C=C2 (stereo not drawn)
3. CC(=O)c1c(OCCCNCCCN2CCOCC2)c2c(c3c1OC(C)(CCC=C(C)C)C=C3)OC(C)(CCC=C(C)C)C=C2 (stereo not drawn)
4. CCCCN(CCCC)CCCNC(=O)COc1c(C(C)=O)ccc2c1C=CC(C)(CCC=C(C)C)O2 (stereo not drawn)
5. CC(=O)c1ccc2c(c1OCC(=O)NCCCN1CCCC1)C=CC(C)(CCC=C(C)C)O2 (stereo not drawn)

Response:
1. 2.93
2. 1.81
3. 1.26
4. 2.43
5. 2.22

Please go through the list and note log10 of HC50 for each compound.
1. CCNCCCOc1ccc(/C=C/C(=O)c2ccc3c(c2OC)C=CC(C)(CCC=C(C)C)O3)cc1 (stereo not drawn)
2. CC(=O)c1ccc2c(c1OCCCN1CCCC1)C=CC(C)(CCC=C(C)C)O2 (stereo not drawn)

Response:
1.78
2.56

Cited source for all entries: ChEMBL document CHEMBL5614413
